- STUDY SYSTEM: human plasma kallikrein (Homo sapiens)
- Sequence (P03952 391-638 limits assumed): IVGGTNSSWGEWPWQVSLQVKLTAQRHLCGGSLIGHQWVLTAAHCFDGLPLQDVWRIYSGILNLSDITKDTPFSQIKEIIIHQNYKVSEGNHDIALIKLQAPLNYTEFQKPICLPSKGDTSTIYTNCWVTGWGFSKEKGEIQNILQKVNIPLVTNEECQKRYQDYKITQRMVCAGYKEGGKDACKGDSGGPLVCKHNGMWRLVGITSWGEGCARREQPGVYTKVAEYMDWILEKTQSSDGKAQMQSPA
- Sequence (P03952 20-390 partner limits assumed): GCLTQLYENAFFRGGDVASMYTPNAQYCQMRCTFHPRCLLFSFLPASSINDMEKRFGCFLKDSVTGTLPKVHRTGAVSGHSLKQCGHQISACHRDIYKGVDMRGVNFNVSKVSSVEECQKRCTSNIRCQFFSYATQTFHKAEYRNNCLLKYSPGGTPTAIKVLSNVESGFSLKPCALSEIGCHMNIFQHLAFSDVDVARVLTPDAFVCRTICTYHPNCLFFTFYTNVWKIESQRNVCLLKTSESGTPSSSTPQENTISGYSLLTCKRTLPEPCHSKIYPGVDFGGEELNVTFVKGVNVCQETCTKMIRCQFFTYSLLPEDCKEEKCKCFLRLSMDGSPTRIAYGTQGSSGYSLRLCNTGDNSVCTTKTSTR
- METHOD DESCRIPTION: Kallikrein inhibition FLINT assay with quenched AMC peptide substrate Z-Gly-Pro-Arg-AMC (end point EP or kinetic KIN reads)
- Format: biochemical
- TEST CONDITIONS: kinetic reads at 5 min intervals over 30 min; read-out: Kallikrein (KIN) IC50
MEASURE NAME: IC50
Param answer (str): number followed by unit.

1) NC(=O)C1CC1CC(c1ccc(-c2c(-n3cnnn3)ccc(Cl)c2F)c[n+]1[O-])n1cc(-c2cc[n+]([O-])cc2)cn1 (single isomer, unassigned)    775 nM
2) [O-][n+]1cc(-c2c(-n3cnnn3)ccc(Cl)c2F)ccc1C(Cn1cc(F)c(COC(F)F)n1)n1cc(-c2ccnc(C(F)(F)F)c2)cn1 (single isomer, unassigned) [Example P570]    7.2 nM

Entry O=C(NC1CC1)c1ccc(-c2cnn(C(CC3CCCCO3)c3ccc(-c4c(-n5cnnn5)ccc(Cl)c4F)c[n+]3[O-])c2)cc1 (single isomer, unassigned) [Example P142] has what IC50? 108 nM

----------
- STUDY SYSTEM: human plasma kallikrein (Homo sapiens)
- METHOD DESCRIPTION: Kallikrein inhibition FLINT assay with quenched AMC peptide substrate Z-Gly-Pro-Arg-AMC (end point EP or kinetic KIN reads)
- Type: biochemical
- TEST CONDITIONS: end point read at 30 min; read-out: Kallikrein (EP) IC50
MEASURE NAME: IC50 (µM)
Supply the numeric figure in µM, leaving out any unit text.

Examples from the recorded data:
1. [O-][n+]1cc(-c2cc(Cl)ccc2-n2cnnn2)ccc1C(Cc1ccc(F)cc1)n1cc(-c2ccc(F)cc2)cn1 (stereo not shown)    0.0442
2. O=C(O)c1ccc(-c2cnn(C(Cc3ccc(F)cc3)c3ccc(-c4cc(Cl)ccc4-n4cnnn4)c[n+]3[O-])c2)cc1 (stereo not shown)    0.0041
3. Nc1ccc(-c2cnn(C(CC3CC3)c3ccc(-c4c(-n5cnnn5)ccc(Cl)c4F)c[n+]3[O-])c2)cn1 (stereo not shown)    0.114

Entry COC(=O)Nc1ccc(-c2cnn(C(Cc3ccc(F)cc3)c3ccc(-c4cc(Cl)ccc4C#N)c[n+]3[O-])c2)cc1 (stereo not shown) has what IC50? 0.355

----------
- STUDY SYSTEM: human plasma kallikrein (Homo sapiens)
- METHOD DESCRIPTION: Kallikrein inhibition FLINT assay with quenched AMC peptide substrate Z-Gly-Pro-Arg-AMC (end point EP or kinetic KIN reads)
- Assay type: biochemical
- TEST CONDITIONS: kinetic reads at 5 min intervals over 30 min; read-out: Kallikrein (KIN) IC50
The reader will find reported pIC50 values listed item by item below.
Interpret pIC50 as the negative base-10 log of the concentration measured in mol/L.

Examples from the recorded data:
1) COc1cc(C(CC2CC2)n2cc(-c3c(F)nnn3C)cn2)[n+]([O-])cc1-c1cc(Cl)ccc1C#N (single isomer, unassigned)    7.09
2) CC(C)(C)c1cnn(CC(c2ccc(-c3c(-n4cc(C(F)(F)F)nn4)ccc(Cl)c3F)c[n+]2[O-])n2cc(-c3ccc(C(N)=O)c(F)c3)cn2)c1 (stereo not drawn)    6.50
3) [O-][n+]1cc(-c2c(-n3cnnn3)ccc(Cl)c2F)ccc1[C@@H](CCOC(F)F)n1cc(-c2cncn2C(F)F)cn1    7.79
4) [O-][n+]1cc(-c2c(-n3cnnn3)ccc(Cl)c2F)ccc1C(CCOC(F)F)n1cc(-c2ccncc2F)cn1 (stereo not drawn)    8.46

Entry O=C(Nc1ccnc(F)c1-c1cnn(C(Cc2ccc(F)cc2)c2ccc(-c3c(-c4cnco4)ccc(Cl)c3F)c[n+]2[O-])c1)C1CC1 (stereo not drawn) has what pIC50? 6.46

Entry CCn1ncc(-c2cnn(C(CC3CC3)c3cc(OC)c(-c4c(-n5cnnn5)ccc(Cl)c4F)c[n+]3[O-])c2)cc1=O (stereo not drawn) has what pIC50? 7.33
